protocol-notes: Log P/D by shake-flask method (1-octanol/buffer, HPLC)
Format: physicochemical
applied-conditions: 1-octanol/buffer; pH 1.0; read-out: Log D Rep.1
assay-metric: logD

Challenge: # lookup: logD of Cc1cc(C)c(-c2ccc(NC(=O)[C@H](Cc3ccc(C(=O)NCCS(=O)(=O)[O-])cc3)c3ccc(-c4ccc(C(C)(C)C)cc4)cc3)cc2)c(C)c1.[Na+] [Polymorph Form A]
Response given: > 4.32

---

protocol-notes: Aqueous solubility, 24 hours at 25° C., HPLC
Format: physicochemical
applied-conditions: pH 4.0 USP buffer (50 mM), 25 °C, pH 4, aqueous buffer, thermodynamic from solid, pH 4.0 buffer; initial pH 4.05, final pH 4.13; 24 hours at 25° C.; n = 2
assay-metric: solubility at 24 h

Challenge: Give its solubility at 24 h value. Item: Cc1cc(C)c(-c2ccc(NC(=O)[C@H](Cc3ccc(C(=O)NCCS(=O)(=O)[O-])cc3)c3ccc(-c4ccc(C(C)(C)C)cc4)cc3)cc2)c(C)c1.[Na+] [Polymorph Form A]
Response given: < 100 µg/mL
